Values compiled from ChEMBL document CHEMBL1136307.

I'd appreciate it if you could supply pIC50 values for the items below.
test: Inhibitory activity against TNF-alpha production in human peripheral blood mononuclear cells(PBMC) using an ELISA assay; format: functional
pIC50 field: float, defined as -log10 of concentration (mol/L).

QUERY: Tell me the measured pIC50 of COc1ccc2c(c1)OC(c1cc(OC)c(OC)c(OC)c1)C(C(=O)OC(C)(C)C)=C2 (stereo not given) , please.
RESULT: 4.89

QUERY: Same question, COc1ccc2c(c1)OC(c1cc(OC)c(OC)c(OC)c1)C(C=O)=C2 (stereo not given) this time
RESULT: 6.22

QUERY: Same question, COc1ccc2c(c1)OC(c1cc(OC)c(OC)c(OC)c1)C(C(=O)N1CCCCC1)=C2 (stereo not given) this time
RESULT: 4.32

QUERY: Same question, CCCCNC(=O)C1=Cc2ccc(OC)cc2OC1c1cc(OC)c(OC)c(OC)c1 (stereo not given) this time
RESULT: 4.50

QUERY: Same question, COc1ccc2c(c1)OC(c1cc(OC)c(OC)c(OC)c1)C(CO)=C2 (stereo not given) this time
RESULT: 5.62

QUERY: Same question, COc1ccc2c(c1)OC(c1cc(OC)c(OC)c(OC)c1)C(C(=O)OC(C)C)=C2 (stereo not given) this time
RESULT: 4.92

QUERY: Same question, COc1ccc2c(c1)OC(c1cc(OC)c(OC)c(OC)c1)C(C(=O)N(C)OC)=C2 (stereo not given) this time
RESULT: 4.51

QUERY: Same question, CNC(=O)C1=Cc2ccc(OC)cc2OC1c1cc(OC)c(OC)c(OC)c1 (stereo not given) this time
RESULT: 5.09

QUERY: Same question, COc1ccc2c(c1)OC(c1cc(OC)c(OC)c(OC)c1)C(C#N)=C2 (stereo not given) this time
RESULT: 6.22

QUERY: Same question, COc1ccc2c(c1)OC(c1cc(OC)c(OC)c(OC)c1)C(C(N)=O)=C2 (stereo not given) this time
RESULT: 6.22

QUERY: Same question, COc1ccc2c(c1)OC(c1cc(OC)c(OC)c(OC)c1)C=C2 (stereo not given) this time
RESULT: 4.94

QUERY: Same question, CCOCC1=Cc2ccc(OC)cc2OC1c1cc(OC)c(OC)c(OC)c1 (stereo not given) this time
RESULT: 5.96

QUERY: Same question, CCCC(=O)C1=Cc2ccc(OC)cc2OC1c1cc(OC)c(OC)c(OC)c1 (stereo not given) this time
RESULT: 5.33

QUERY: Same question, COc1ccc2c(c1)OC(c1cc(OC)c(OC)c(OC)c1)C(/C=N/O)=C2 (stereo not given) this time
RESULT: 5.39

QUERY: Same question, CCOC(=O)C1=Cc2ccc(OC)cc2OC1c1cc(OC)c(OC)c(OC)c1 (stereo not given) this time
RESULT: 5.15

QUERY: Same question, COc1ccc2c(c1)OC(c1cc(OC)c(OC)c(OC)c1)C(C(=O)NC(C)C)=C2 (stereo not given) this time
RESULT: 4.38
